From: paper PMC10976043

# System: HSV-1 virion
# assay-comment: HSV-1 free virion infectivity assay, qPCR
# Format: cell-based, herpes simplex virus type 1
# conditions: mutant comparison (Figure 7C): 5 μg/mL coincubated with HSV-1 (MOI 1) at 37 °C for 1 h, then Vero cells infected, 24 h
# Protocol: Figure 5 Protopolybia-MP III destroys the integrity of HSV-1 free virions. (A) Schematic diagram for studying the effect of Protopolybia-MP III on HSV-1 free virion infectivity. […] After 24 h, cells were collected, and intracellular HSV-1 RNA was analyzed by qPCR. […] After 24 h, cells were collected, and intracellular HSV-1 RNA was analyzed by qPCR. […] Then, after centrifuging for 2 h at 40,000 rpm at 4 °C, the contents of HSV-1 gB in the supernatant and precipitate were detected by Western blotting (D). […]
Ends that are not written are not given here.
assay-endpoint: inhibition rate of HSV-1 free virion infectivity (%)
Numbers only, in %.

>  <substance>
INWLKLGKKVIAIL-NH2 [MP III-12]

>  <target-or-test-system>
HSV-1 virion

>  <unit-annotation>
%

>  <measured-value>
92.4

$$$$
>  <substance>
INWLKLGKAVIDAL-NH2 [Protopolybia-MP III]

>  <target-or-test-system>
HSV-1 virion

>  <unit-annotation>
%

>  <measured-value>
97.3

$$$$
>  <substance>
INWLKLGKKVSAAL-NH2 [MP III-14]

>  <target-or-test-system>
HSV-1 virion

>  <unit-annotation>
%

>  <measured-value>
25.3

$$$$
>  <substance>
INWLKLGKKVIDIL-NH2 [MP III-7]

>  <target-or-test-system>
HSV-1 virion

>  <unit-annotation>
%

>  <measured-value>
100

$$$$
>  <substance>
INWLKLGKKVIDAL-NH2 [MP III-1]

>  <target-or-test-system>
HSV-1 virion

>  <unit-annotation>
%

>  <measured-value>
59.7

$$$$
>  <substance>
INWLKLGKAVIAIL-NH2 [MP III-10]

>  <target-or-test-system>
HSV-1 virion

>  <unit-annotation>
%

>  <measured-value>
100

$$$$
>  <substance>
INWLKLGKKVIAAL-NH2 [MP III-6]

>  <target-or-test-system>
HSV-1 virion

>  <unit-annotation>
%

>  <measured-value>
95.5

$$$$
>  <substance>
INWLKLGKAVSAIL-NH2 [MP III-11]

>  <target-or-test-system>
HSV-1 virion

>  <unit-annotation>
%

>  <measured-value>
64.7

$$$$
>  <substance>
INWLKLGKAVSDIL-NH2 [MP III-9]

>  <target-or-test-system>
HSV-1 virion

>  <unit-annotation>
%

>  <measured-value>
63.6

$$$$
>  <substance>
INWLKLGKAVSDAL-NH2 [MP III-2]

>  <target-or-test-system>
HSV-1 virion

>  <unit-annotation>
%

>  <measured-value>
27.4

$$$$

Could you now consider this next substance?
Sample INWLKLGKAVIAAL-NH2 [MP III-3] ; inhibition rate of HSV-1 free virion infectivity observed: 58.3
